Origin of values: paper PMC3897377

Biological target: T1, DBL1-ID2a protein of VAR2CSA (containing minimal CSA-binding region), baculovirus-produced (Plasmodium falciparum FCR3 (assumed for …, UniProt Q6UDW7, strain))
T1 construct: DBL1-ID2a; source: baculovirus-produced
Assay: far-Western, overlay or dot blot; Western blot: recombinant VAR2CSA domain (0,4 µg/lane) run NON-REDUCED on SDS gel, blotted to nitrocellulose, probed with 50 nM Nb in TBST; rabbit anti-camel and HRP anti-rabbit
Settings: both partners purified
REPORTED PROPERTY: binding result

binder="Nb01 (VHH, from an alpaca immunized with full-length VAR2CSA; pHEN6c vector; also called Nanobody 01; VHH; source: E. coli WK6, periplasmic extract, purified (HisTrap); not shown: His6, C-terminal, kept) VHH: QVQLQESGGGLVQAGGSLRLSCAASGRTFNSYVMGWFRQAPGKEREFVAAISWSGGNAYYADSVKGRFTISRDNAENTVYLLMNSLKPEDTAVYYCAAALTRLARNEYDYLGQGTQVTVSS" reported_property="binding result" result=binds
binder="Nb07 (VHH, from an alpaca immunized with full-length VAR2CSA; pHEN6c vector; also called Nanobody 07; VHH; source: E. coli WK6, periplasmic extract, purified (HisTrap); not shown: His6, C-terminal, kept) VHH: QVQLQESGGGLVQAGGSLRLSCAASGFTFDDYVIGWFRQAPGKEREGVSCISRSDGSTYYADSVKGRFTISSDNAKNTIYLQMNSLKPEDTAVYHCAAAMTHFGLGPGPNEYDYWGQGTQVTVSS" reported_property="binding result" result=binds
